Data origin, for the record: the supplement of paper PMC10126150

System: ATP;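 note: ATP exposure 15 min at 22 °C before imaging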
TEST_DESCRIPTION: switch fluorescence ratio, 500 uM ATP over buffer (Cy3 cluster intensity, sum of 5 cycles each) (fold (ratio)); higher = stronger signal-on switching upon ATP binding; sequences stand for … in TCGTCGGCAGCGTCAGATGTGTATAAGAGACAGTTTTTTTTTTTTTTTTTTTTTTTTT…TC
DETAILS: aptamer strand: ATP DNA aptamer (quencher-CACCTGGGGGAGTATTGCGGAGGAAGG + anchor), 100 nM annealed; ATP concentration: 500 uM
PROPERTY_MEASURED: switch fluorescence ratio

# MACROMOLECULE_SEQUENCE, MEASURED_NUMBER
data = [
    ("TTGACCTGTG", 1.02),
    ("CAAATAAAGG", 1.01),
    ("TTGTTTTCGG", 0.961),
    ("GATCGGATTA", 0.999),
    ("GATCTGTGGA", 0.95),
    ("TCACCCGTTT", 0.993),
    ("TTTGTATTTT", 0.992),
    ("CAGTTTGTTT", 0.988),
    ("CGATTAAGAT", 1.02),
    ("AGGGGAAGGT", 0.984),
    ("AAGACATGGG", 1),
    ("CTTATGACAG", 0.988),
    ("CGCAGGCCTC", 1.47),
    ("CGGGGGAAGC", 1.02),
    ("TGCGTATATT", 0.98),
    ("CTACCGGATT", 1.07),
    ("ATACGATTGG", 0.967),
    ("ATTAGAAATG", 0.997),
    ("GGAGAAATCG", 1.06),
    ("TCGTGTATAT", 1),
]

----------
System: ATP;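 note: ATP exposure 15 min at 22 °C before imaging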
TEST_DESCRIPTION: switch fluorescence ratio, 500 uM ATP over buffer (Cy3 cluster intensity, sum of 5 cycles each) (fold (ratio)); higher = stronger signal-on switching upon ATP binding; sequences stand for … in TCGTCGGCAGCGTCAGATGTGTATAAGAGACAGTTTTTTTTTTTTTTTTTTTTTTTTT…TC
DETAILS: aptamer strand: ATP DNA aptamer (quencher-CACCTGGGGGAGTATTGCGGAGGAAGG + anchor), 100 nM annealed; ATP concentration: 500 uM
switch fluorescence ratio values by entry
PROPERTY_MEASURED: switch fluorescence ratio

# MACROMOLECULE_SEQUENCE, MEASURED_NUMBER
rows = [
    ("TTGTTTATAG", 0.985),
    ("GATCTACGGC", 1.07),
    ("TACTGGCTGC", 1.02),
    ("GGGGCGGTGG", 1.04),
    ("CTCGGAACCT", 1.84),
    ("CGCTGGGGGA", 1.05),
    ("TATTGATTTG", 1.02),
    ("TCCGAGGGCT", 1.59),
    ("GGGTCTAGGA", 1.01),
    ("TTCTTAATGC", 0.985),
    ("ATTGTAGACC", 1.02),
    ("TATTATGTGG", 0.961),
    ("GCGTGACCGC", 0.995),
    ("TGGGTGAGCT", 1.01),
    ("GAGGTGTGTT", 0.996),
    ("ATAGTCAGTA", 1.01),
    ("TTTGATGTTG", 0.976),
    ("CCTTAGTGTT", 1.03),
    ("GCGGGGGCGC", 0.985),
    ("TATTCATTAA", 0.969),
    ("GTCGGGGGTA", 0.992),
    ("GACTAGGCCT", 0.988),
    ("GGCGCGGAGG", 0.992),
    ("CTGGCTGGCA", 0.995),
    ("GGGGGCATTT", 1),
    ("TCGTAATTGT", 1.02),
    ("ATGCCGGTAT", 0.999),
    ("ATATCTAAGT", 0.998),
    ("ATTTGGATAA", 0.989),
    ("ATAAAGTGTG", 1.01),
    ("ACAGAAGGGT", 0.972),
    ("TTTTGAGGTT", 0.983),
    ("TAAATATTT", 0.996),
    ("GCCGTCTGTG", 0.973),
    ("GATGTTGAAT", 0.998),
    ("TTTATAAGGT", 0.988),
    ("TTCGTTGGAC", 1.01),
    ("ATGGTTATCT", 1.01),
    ("GCTAACGGCA", 0.994),
    ("TGAGGATGGA", 0.975),
    ("GAGGAGAATT", 0.983),
    ("GTTCGCATTG", 1.08),
    ("TGAGGGTTTT", 0.997),
]

----------
System: ATP;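 note: ATP exposure 15 min at 22 °C before imaging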
TEST_DESCRIPTION: switch fluorescence ratio, 500 uM ATP over buffer (Cy3 cluster intensity, sum of 5 cycles each) (fold (ratio)); higher = stronger signal-on switching upon ATP binding; sequences stand for … in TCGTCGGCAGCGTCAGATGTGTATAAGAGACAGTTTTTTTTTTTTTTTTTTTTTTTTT…TC
DETAILS: aptamer strand: ATP DNA aptamer (quencher-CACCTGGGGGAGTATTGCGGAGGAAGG + anchor), 100 nM annealed; ATP concentration: 500 uM
Returns Y if the recorded switch fluorescence ratio is greater than or equal to 1, and N otherwise.

# MACROMOLECULE_SEQUENCE, CLASSIFICATION
data = [
    ("GAATTCTCCG", "Y"),
    ("AACCGTGGCG", "Y"),
    ("ACAGGGGATG", "Y"),
    ("TGGGTACGCA", "Y"),
    ("GTTCTGCAAT", "Y"),
    ("TCCCCGACGT", "Y"),
    ("CAGTGGGTTT", "N"),
    ("TTTTATAATA", "Y"),
    ("CCCACTGGGA", "Y"),
    ("AGTTAGTTCG", "N"),
    ("AAACTGGGGC", "Y"),
    ("AATCGTGTAG", "Y"),
    ("TAACAACGTA", "Y"),
    ("CCCCGTTTCG", "Y"),
    ("GCGAGTTCTA", "N"),
    ("GCTGTACGCT", "N"),
    ("TCCATGTTTT", "Y"),
    ("ACGAAGGGGT", "Y"),
    ("AGGGACGAAT", "Y"),
    ("AGGAAGGGTT", "Y"),
    ("TTCCGGGACG", "Y"),
    ("TAGGCACCGA", "Y"),
    ("GAAGCTAGAA", "Y"),
    ("CGGTTTAATA", "Y"),
    ("CGTAATTTTC", "Y"),
    ("TCTTTTCTTT", "Y"),
    ("GAGGATGGGT", "N"),
]

----------
System: ATP;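 note: ATP exposure 15 min at 22 °C before imaging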
TEST_DESCRIPTION: switch fluorescence ratio, 500 uM ATP over buffer (Cy3 cluster intensity, sum of 5 cycles each) (fold (ratio)); higher = stronger signal-on switching upon ATP binding; sequences stand for … in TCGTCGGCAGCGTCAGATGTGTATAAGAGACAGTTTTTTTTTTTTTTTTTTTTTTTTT…TC
DETAILS: aptamer strand: ATP DNA aptamer (quencher-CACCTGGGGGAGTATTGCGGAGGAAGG + anchor), 100 nM annealed; ATP concentration: 500 uM
switch fluorescence ratio values by entry

# MACROMOLECULE_SEQUENCE, SYSTEM_TESTED, switch fluorescence ratio
rows = [
    ("ATAGTTGTGA", "ATP", 0.987),
    ("AGCCGAGTTC", "ATP", 1.01),
    ("TATCAATTTT", "ATP", 1),
    ("CGGCTGCGTG", "ATP", 0.998),
    ("GGTTGATTAT", "ATP", 0.979),
    ("TTTAGGTTTT", "ATP", 1.01),
    ("GCTTTTGCGG", "ATP", 0.981),
    ("CGTAGGAAAA", "ATP", 0.98),
    ("GGGGCATGGA", "ATP", 0.95),
    ("CGGCTACTTT", "ATP", 1.03),
    ("TAGTTTATCA", "ATP", 1),
    ("AATATTACAT", "ATP", 1.03),
    ("ACCGGCTGCG", "ATP", 1.08),
    ("CGTTTATGTG", "ATP", 0.995),
    ("ATTTGCTTGT", "ATP", 1.01),
    ("TTAAAGACCT", "ATP", 1.45),
    ("CCTCGAGACT", "ATP", 1.43),
    ("ACCCCATGTT", "ATP", 1.86),
    ("TGATCGCTGG", "ATP", 1.02),
    ("CGAGGGTAAC", "ATP", 0.983),
    ("GGGGAAAGAG", "ATP", 1),
    ("TGTTATTCAT", "ATP", 0.985),
    ("AGCCAGTTTT", "ATP", 0.989),
    ("TTAGGAAGGG", "ATP", 0.956),
    ("AACGATTGGG", "ATP", 0.948),
    ("GGTTTGTTAT", "ATP", 1),
    ("TACAAGCTAA", "ATP", 0.978),
    ("GCATGCGCTG", "ATP", 0.982),
    ("GCATTAGCTT", "ATP", 1.01),
    ("GCAATAATTT", "ATP", 2.83),
    ("TGGCGGGGTT", "ATP", 0.986),
    ("TGTTTTGCGG", "ATP", 0.97),
    ("TTTTAGCATT", "ATP", 0.992),
    ("AATTAGTATG", "ATP", 0.999),
    ("ATTTGGGGAG", "ATP", 1.02),
    ("TGGGTATGG", "ATP", 1.07),
    ("TCATTCGGGG", "ATP", 0.973),
    ("TGGCCTCATC", "ATP", 1.02),
    ("GCCCTGGGGC", "ATP", 1.01),
    ("GGGTCAGGTG", "ATP", 3.44),
    ("GTAGCTCCTG", "ATP", 0.995),
    ("CTGAGTTTGG", "ATP", 1.07),
    ("TGGTGAGGGT", "ATP", 0.999),
]
